- Experiment: inhibitors of firefly luciferase expression or activity, dose response, H4 neuroglioma cells, luminescence (AID 1990)
- Assay type: functional, cell-based
Active and inactive are the calls of the source.
Reported endpoint: EC50

| Compound | Reported endpoint | Endpoint result |
| --- | --- | --- |
| O=[N+]([O-])c1ccc(Cl)cc1Sc1nc2ccccc2o1 | EC50 | > 120 µM (not active) |
| CCCCCC(=O)Nc1ccccc1N1CCOCC1 | EC50 | > 120 µM (not active) |
| Cc1cccc(C)c1OCC(O)CN(Cc1ccccc1O)C1CCCCC1 (stereo unspecified) | EC50 | > 120 µM (not active) |
| COc1cc2nc(C3CCC3)nc(N3CCN(c4ccccn4)CC3)c2cc1OC | EC50 | 15.1 µM (active) |
| CCOC(=O)c1[nH]c(C)c(C(=O)c2cc(F)ccc2F)c1C | EC50 | 10.6 µM (active) |
| COc1ccc(-c2c/c(=N\c3nc(-c4ccccc4)c(C)s3)c3ccccc3o2)cc1O | EC50 | 5.76 µM (inconclusive) |

* * *

// EC50 lookup, one value per entry
- Experiment: cells
- Type: functional, cell-based
Active and inactive are the calls of the source.

| Compound | EC50 |
| --- | --- |
| CCNc1nc(Cl)nc(NNC(=O)C(C)Oc2ccccc2)n1 (configuration not stated) | > 350 µM (not active) |
| Cc1ccccc1-n1c(=O)n(Cc2ccc(C(=O)O)cc2)c(=O)c2[nH]cnc21 | > 350 µM (not active) |
| CC(C)c1ccc2oc(=O)cc(CN3CCOCC3)c2c1 | > 350 µM (not active) |
| COc1nccc(C(F)(F)F)c1C(=O)NC(=O)Nc1ccccc1 | > 350 µM (not active) |
| Oc1ccc2ccccc2c1/C=N/Nc1nnc(-c2ncc[nH]2)c2ccccc12 | 82.8 µM (active) |
| COc1ccccc1CCNS(=O)(=O)c1cc2c3c(c1)C(C)C(=O)N3CCC2 (configuration not stated) | > 350 µM (not active) |
| Cc1ccc(O)c(/C=N/NC(=O)CN2CCCC2)c1 | 104 µM (active) |

* * *

- Experiment: growth suppression of beta-catenin-knockout colon cells, dose response, cell-based, HCT116, human colon tumor (AID 1045);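 note: HCT116 colon tumor cells with beta catenin knocked out; cells exposed to compound for 60 hours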
- Type: functional
Activity calls are given as the source filed them.
# EC50 annotations

| Molecule smiles | EC50 |
| --- | --- |
| CCCCCn1c(N2CCC(Cc3ccccc3)CC2)nc2c1c(=O)[nH]c(=O)n2C | 12.7 µM (active) |
| O=C(/C=C/c1ccc([N+](=O)[O-])cc1)c1cccnc1 | 4.4 µM (active) |
| COc1cc(-c2cc(C(=O)Nc3c(Cl)cc(Cl)cc3Cl)c3ccccc3n2)cc(OC)c1OC | 44.6 µM (active) |
| CC1=CC(C)(C)Nc2ccc(OC(=O)CCN3C(=O)c4ccccc4C3=O)cc21 | 6.3 µM (active) |
| COc1ccc(S(=O)(=O)Nc2cc3c4c(oc3c3ccccc23)CC(C)(C)CC4=O)cc1 | 26.6 µM (active) |

* * *

# reported AC50; entries follow
- Assayed target: Paired box protein Pax-8 (Homo sapiens, UniProt Q06710)
- Sequence (Q06710 whole entry): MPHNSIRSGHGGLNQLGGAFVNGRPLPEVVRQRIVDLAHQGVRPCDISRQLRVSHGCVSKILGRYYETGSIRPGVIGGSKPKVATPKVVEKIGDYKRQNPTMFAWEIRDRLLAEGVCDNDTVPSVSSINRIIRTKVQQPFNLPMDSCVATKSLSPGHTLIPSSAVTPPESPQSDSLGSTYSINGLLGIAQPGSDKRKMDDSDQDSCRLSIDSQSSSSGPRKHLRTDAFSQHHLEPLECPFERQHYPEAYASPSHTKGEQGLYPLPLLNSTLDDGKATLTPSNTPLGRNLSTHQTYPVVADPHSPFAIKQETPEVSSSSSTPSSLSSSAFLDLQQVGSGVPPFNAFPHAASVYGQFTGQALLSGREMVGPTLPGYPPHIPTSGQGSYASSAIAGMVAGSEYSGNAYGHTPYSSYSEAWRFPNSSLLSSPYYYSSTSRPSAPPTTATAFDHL
- Experiment: inhibitors of PAX8-driven TPO luciferase reporter, dose response, RMG-I cells, cherry-pick (AID 687027);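 note: luciferase reporter driven by Pax8 target thyroperoxidase promoter measured by SteadyGlo luminescence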
- Format: functional, cell-based
Active and inactive are the calls of the source.

| Molecule smiles | AC50 |
| --- | --- |
| COc1ccc(S(=O)(=O)N2CCCCN3[C@H](C2)[C@H](c2ccc(C#CC(C)C)cc2)[C@@H]3CO)cc1 | 9.44 µM (active) |
| C[C@@H]1CCCCO[C@H](CN(C)Cc2ccc(C(F)(F)F)cc2)[C@H](C)CN([C@H](C)CO)C(=O)c2cc(NS(=O)(=O)c3cccs3)ccc2O1 | 11.5 µM (active) |
| O=C(NC12CC3CC(CC(C3)C1)C2)c1ccc([N+](=O)[O-])o1 | 4.39 µM (active) |
| C=C1C(=O)O[C@@H]2C[C@@H](C)[C@@H]3C=CC(=O)[C@@]3(C)[C@@H](OC(C)=O)[C@H]12 | 0.742 µM (active) |

* * *

- Assayed target: UniProtKB P63073
- Sequence (P63073 whole entry): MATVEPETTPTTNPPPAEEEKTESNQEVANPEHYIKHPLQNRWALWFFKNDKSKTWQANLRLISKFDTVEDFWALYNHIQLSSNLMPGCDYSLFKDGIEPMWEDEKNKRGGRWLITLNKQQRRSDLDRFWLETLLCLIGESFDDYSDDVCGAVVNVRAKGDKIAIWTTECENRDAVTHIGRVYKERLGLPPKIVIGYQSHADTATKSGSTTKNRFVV
- Experiment: eIF4E–eIF4G protein interaction inhibitors, dose response, biochemical, TR-FRET (AID 855);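 note: potency for disrupting eIF4E binding to eIF4GI seen as loss of FRET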
- Format: functional
Calls of active or inactive are those of the source.
Labels: active, inactive

| Compound | Assigned category |
| --- | --- |
| COc1ccc(Cc2nnc(NC(=O)Cc3cccs3)s2)cc1OC | active |
| CC(C)N(Cc1nc(-c2ccccc2)no1)C(=O)COc1ccccc1 | inactive |
| CCCN1CCN(C(=O)CCCNC(=O)Cn2cnc3sc(C)c(C)c3c2=O)CC1 | inactive |
| COc1ccc(S(=O)(=O)Nc2cc(Sc3nc[nH]n3)c(O)c3ccccc23)cc1 | inactive |
| COc1ccccc1NC(=S)NCCSc1ccc(Cl)cc1 | inactive |
| CC(C)C(C(=O)O)N1C(=O)/C(=C/C=C/c2ccco2)SC1=S (configuration not stated) | active |
| COc1cc(C2C(C(=O)c3ccccc3)=C(O)C(=O)N2c2ccccn2)ccc1O (configuration not stated) | inactive |

* * *

- Assayed target: Microphthalmia-associated transcription factor (Homo sapiens, UniProt O75030)
- Sequence (O75030 whole entry): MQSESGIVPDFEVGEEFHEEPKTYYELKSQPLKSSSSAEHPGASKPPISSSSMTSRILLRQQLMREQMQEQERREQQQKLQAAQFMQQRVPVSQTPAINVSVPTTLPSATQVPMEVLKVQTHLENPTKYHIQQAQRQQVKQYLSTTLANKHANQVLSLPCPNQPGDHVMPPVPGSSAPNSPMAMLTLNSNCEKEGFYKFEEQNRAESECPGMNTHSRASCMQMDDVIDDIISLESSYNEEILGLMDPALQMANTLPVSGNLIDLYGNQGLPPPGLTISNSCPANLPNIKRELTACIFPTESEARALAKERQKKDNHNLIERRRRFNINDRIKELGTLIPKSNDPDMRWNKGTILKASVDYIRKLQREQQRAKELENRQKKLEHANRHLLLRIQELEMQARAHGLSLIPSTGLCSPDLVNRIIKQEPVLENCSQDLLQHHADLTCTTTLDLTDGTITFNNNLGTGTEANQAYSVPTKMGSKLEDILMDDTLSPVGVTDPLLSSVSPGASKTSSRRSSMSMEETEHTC
- Experiment: TRPM1 promoter luciferase signal decrease, dose response, MITF inhibitor project, cell-based, SK-MEL-5, cherry-picked, set 3 (AID 493073);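 note: SK-MEL-5 melanoma cells with luciferase driven by the MITF target TRPM1 promoter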
- Assay type: functional
Activity calls are given as the source filed them.

| Compound | AC50 |
| --- | --- |
| CC1C/C(=C\c2cccnc2)C(=O)/C(=C/c2cccnc2)C1 (configuration not stated) | 2.66 µM (active) |
| O=C(CSCC(=O)Nc1ccccc1)N/N=C/c1c(O)ccc2ccccc12 | 3.34 µM (active) |
| CC(C)(c1ccccc1)c1ccc(OCC(O)CNC2CCN(Cc3ccccc3)CC2)cc1 (configuration not stated) | 7.94 µM (active) |
| CC(C)(C)c1ccc(/C=N/Nc2ccc(C(=O)O)cc2)cc1 | 6.03 µM (active) |
| O=C(c1nnsc1S(=O)(=O)c1ccc(Cl)cc1)N1CCOCC1 | 9.51 µM (active) |
| CC(C)=CCc1c(O)ccc2c1OC(c1ccc(O)c(O)c1)CC2=O (configuration not stated) | 11.7 µM (active) |
| CC(=NNc1nc2ccccc2o1)c1cc2ccccc2cn1 | 0.175 µM (active) |

* * *

- Assayed target: Sentrin-specific protease 8 (Homo sapiens);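 note: kinetic enzyme assay of SENP8 cleaving a Nedd8 protein substrate, dose-response confirmation of screening hits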
- Sequence (Q96LD8 whole entry): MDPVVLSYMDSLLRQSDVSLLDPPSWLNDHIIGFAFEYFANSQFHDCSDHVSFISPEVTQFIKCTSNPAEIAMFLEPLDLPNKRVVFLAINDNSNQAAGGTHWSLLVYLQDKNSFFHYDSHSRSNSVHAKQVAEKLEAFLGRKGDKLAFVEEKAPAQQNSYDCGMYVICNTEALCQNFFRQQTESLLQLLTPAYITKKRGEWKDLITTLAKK
- Format: functional
The source made the active and inactive calls.
Measured IC50 of individual entries

| Molecule | IC50 |
| --- | --- |
| O=C(Nc1ccc(O)cc1)C1CC=CCC1 (stereo not given) | 19.1 µM (active) |
| N#CC1(CCCN2CCCCC2)c2ccccc2CCc2ccccc21 | 43.4 µM (active) |
| COc1ccc(-c2cc(=O)n(-c3ccc([N+](=O)[O-])cc3)[nH]2)cc1 | 25.2 µM (active) |
| COc1cccc(-c2cc(C(=O)N3CCc4ccccc4C3)no2)c1 | 7.7 µM (active) |
| CCCCOc1cc(NCc2ccccc2)c2ncn(C(C)C)c2c1 | 12.2 µM (active) |

* * *

Each entry below carries its recorded EC50.
- Experiment: Luminescence Cell-Based Dose Confirmation HTS to Identify Inhibitors of Platelet Dense Granule Release. [Related pubchem assays: 1663 (Primary HTS), 1678 (Summary of Project)]
- Type: functional
Activity calls are given as the source filed them.
Reported endpoint: EC50

| Compound | Endpoint result |
| --- | --- |
| Cc1ccccc1C(=O)OCn1nnc2ccccc2c1=O | 16.2 µM (active) |
| Cc1cc(F)ccc1NC(=O)c1cc(S(=O)(=O)N2CCOCC2)cn1C | > 112 µM (not active) |
| NC(=O)N1CCN(C(=O)c2ccco2)CC1 | > 112 µM (not active) |
| CC1Cc2nc(SCC(=O)N3CCCc4ccccc43)n(C)c(=O)c2S1 (centres undefined) | > 112 µM (not active) |

* * *

- Assayed target: Paired box protein Pax-8 (Homo sapiens)
- Experiment: inhibitors of PAX8-driven TPO luciferase reporter, dose response, RMG-I cells, cherry-pick (AID 687027)
- Assay type: functional, cell-based
Active and inactive are the calls of the source.
# key: entry, value: AC50
Reported endpoint: AC50

| Compound | Assayed target | Reported endpoint | Endpoint result |
| --- | --- | --- | --- |
| C[C@@H]1CCCCO[C@H](CN(C)C(=O)NC2CCCCC2)[C@@H](C)CN([C@@H](C)CO)C(=O)c2cc(NC(=O)Nc3ccc(C(F)(F)F)cc3)ccc2O1 | Paired box protein Pax-8 (Homo sapiens) | AC50 | 4.98 µM (active) |
| Cc1ccc2cccc(NS(=O)(=O)c3ccccc3)c2n1 | Paired box protein Pax-8 (Homo sapiens) | AC50 | 5.74 µM (active) |
| C[C@@H]1CCCCO[C@@H](CN(C)Cc2ccc(Cl)c(Cl)c2)[C@H](C)CN([C@H](C)CO)C(=O)c2cc(NS(=O)(=O)c3ccccc3)ccc2O1 | Paired box protein Pax-8 (Homo sapiens) | AC50 | 7.95 µM (active) |
| COc1ccc(OCc2cccc(C(=O)Nc3cc(C)on3)c2)cc1 | Paired box protein Pax-8 (Homo sapiens) | AC50 | 4.14 µM (active) |
| C[C@@H]1CN([C@@H](C)CO)C(=O)Cc2cc(NS(=O)(=O)c3ccccc3)ccc2O[C@H]1CN(C)Cc1ccc(C(F)(F)F)cc1 | Paired box protein Pax-8 (Homo sapiens) | AC50 | 6.03 µM (active) |
| Cc1ccc(C(=O)N[C@@H](C)CN2C3=NC[C@@H](Cc4ccccc4)N3C[C@H]2Cc2ccc(O)cc2)cc1Br | Paired box protein Pax-8 (Homo sapiens) | AC50 | 24.8 µM (active) |
| COc1cc(C2C3=C(Nc4ncnn42)c2ccccc2CC3)cc(OC)c1OC (stereo not drawn) | Paired box protein Pax-8 (Homo sapiens) | AC50 | 2.18 µM (active) |
| C[C@@H]1CN([C@@H](C)CO)C(=O)c2cc(NC(=O)Nc3ccc(C(F)(F)F)cc3)ccc2O[C@@H](C)CCCCO[C@H]1CN(C)C(=O)c1ccccc1 | Paired box protein Pax-8 (Homo sapiens) | AC50 | 5.18 µM (active) |
